For each record, write down the corresponding pIC50.
target: melatonin ML1b receptor (Homo sapiens, UniProt P49286)
Construct: expressed in transfected cells; membrane homogenates
Sequence (P49286 whole entry): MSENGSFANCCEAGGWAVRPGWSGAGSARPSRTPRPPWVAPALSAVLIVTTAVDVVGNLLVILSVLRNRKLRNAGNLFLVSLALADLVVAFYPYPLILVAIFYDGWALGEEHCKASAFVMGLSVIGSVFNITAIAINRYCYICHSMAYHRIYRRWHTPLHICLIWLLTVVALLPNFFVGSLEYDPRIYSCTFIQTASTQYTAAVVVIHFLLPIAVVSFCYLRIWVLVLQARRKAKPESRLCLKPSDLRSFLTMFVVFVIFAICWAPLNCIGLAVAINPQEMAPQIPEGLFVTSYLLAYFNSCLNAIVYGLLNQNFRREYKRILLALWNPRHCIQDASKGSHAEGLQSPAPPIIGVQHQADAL
experiment_notes: Melatonergic receptor binding, 2-[125I]-iodomelatonin, ML1b
conditions_used: Table I; NIH-3T3 membranes, 0.2 nM 2-[125I]-iodomelatonin, 37° C. 1 hour
pIC50: −log10 of the molar value.

Look at this compound and give its reported pIC50. CC(=O)NCCCc1cccc2nc(CCCCc3ccccc3)oc12 [Example 25]
6.60 to 8.00

Queued: Cc1nc2cccc(CCCNC(=O)C3CC3)c2o1 [Example 4]
> 8.00

Queued: CCC(=O)NCCCc1cccc2ncoc12 [Example 32, N-(3-Benzoxazol-7-ylpropyl)propanamide]
> 8.00

Queued: CCCc1nc2cccc(CCCNC(=O)C3CC3)c2o1 [Example 17]
6.60 to 8.00

Queued: CCCC(=O)NCCCc1cccc2nc(-c3ccccc3)oc12 [Example 21]
6.60 to 8.00

Queued: CC(C)C(=O)NCCCc1cccc2nc(C(C)C)oc12 [Example 37]
6.60 to 8.00

Queued: CC(C)C(=O)NCCCc1cccc2ncoc12 [Example 33]
> 8.00

====

target: melatonin ML1a receptor (Homo sapiens, UniProt P48039)
Construct: expressed in transfected cells; membrane homogenates
Sequence (P48039 whole entry): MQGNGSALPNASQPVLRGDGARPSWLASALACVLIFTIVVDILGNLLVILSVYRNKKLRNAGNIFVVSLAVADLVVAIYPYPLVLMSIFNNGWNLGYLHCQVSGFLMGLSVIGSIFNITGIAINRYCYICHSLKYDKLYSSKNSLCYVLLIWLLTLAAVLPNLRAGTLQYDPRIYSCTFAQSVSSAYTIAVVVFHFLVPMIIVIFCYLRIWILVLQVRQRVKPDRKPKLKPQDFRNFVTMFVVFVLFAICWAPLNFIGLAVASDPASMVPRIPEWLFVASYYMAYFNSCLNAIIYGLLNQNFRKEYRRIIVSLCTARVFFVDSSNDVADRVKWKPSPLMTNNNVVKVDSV
experiment_notes: Melatonergic receptor binding, 2-[125I]-iodomelatonin, ML1a
conditions_used: Table II; NIH-3T3 membranes, 0.1 nM 2-[125I]-iodomelatonin, 37° C. 1 hour
test_readout: IC50

Look at this molecule and give its reported IC50. CCc1nc2ccc(Br)c(CCCNC(C)=O)c2o1 [Example 42]
10 to 250 nM

Queued: CCc1nc2ccc(-c3ccccc3)c(CCCNC(=O)C3CC3)c2o1 [Example 57]
10 to 250 nM

Queued: CCc1nc2cc(-c3ccccc3)cc(CCCNC(=O)C3CC3)c2o1 [Example 67]
10 to 250 nM

Queued: CCc1nc2ccc(-c3ccc(OC)cc3)c(CCCNC(=O)c3ccccc3)c2o1 [Example 53]
> 250 nM

Queued: C=Cc1ccc2nc(CC)oc2c1CCCNC(C)=O [Example 43]
10 to 250 nM

Queued: CCc1nc2ccc(-c3ccc(C(F)(F)F)cc3)c(CCCNC(=O)C3CC3)c2o1 [Example 51]
> 250 nM

Queued: CCc1nc2ccc(C)c(CCCNC(=O)c3ccccc3)c2o1 [Example 45]
10 to 250 nM

Queued: CCc1nc2cc(-c3ccc(OC)cc3)cc(CCCNC(C)=O)c2o1 [Example 62]
10 to 250 nM

Queued: C=Cc1ccc2nc(CC)oc2c1CCCNC(=O)OC(C)(C)C [Example 41]
> 250 nM

====

target: melatonin ML1a receptor (Homo sapiens, UniProt P48039)
Construct: expressed in transfected cells; membrane homogenates
experiment_notes: Melatonergic receptor binding, 2-[125I]-iodomelatonin, ML1a
conditions_used: Table I; NIH-3T3 membranes, 0.1 nM 2-[125I]-iodomelatonin, 37° C. 1 hour
pIC50: −log10 of the molar value.
For each record, write down the corresponding pIC50.

Look at this compound and give its reported pIC50. "CCCc1nc2cccc(CCCNC(=O)C(C)C)c2o1"
6.60 to 8.00

Queued: "CCCc1nc2cccc(CCCNC(=O)C3CC3)c2o1"
6.60 to 8.00

Queued: "CCC(=O)NCCCc1cccc2nc(C)oc12"
> 8.00

Queued: "CCNC(=O)NCCCc1cccc2nc(C(C)C)oc12"
< 6.60

Queued: "CCNC(=O)NCCCc1cccc2nc(C)oc12"
6.60 to 8.00

Queued: "CCC(=O)NCCCc1cccc2nc(CCCCc3ccccc3)oc12"
> 8.00

Queued: "CCCC(=O)NCCCc1cccc2nc(C(C)C)oc12"
6.60 to 8.00

Queued: "CCCC(=O)NCCCc1cccc2nc(-c3ccccc3)oc12"
6.60 to 8.00

Queued: "Cc1nc2cccc(CCCNC(=O)C(C)C)c2o1"
> 8.00

Queued: "O=C(NCCCc1cccc2nc(CCCCc3ccccc3)oc12)C1CC1"
> 8.00

Queued: "CCCc1nc2cccc(CCCNC(=O)NCC)c2o1"
< 6.60

Queued: "CCNC(=O)NCCCc1cccc2nc(-c3ccccc3)oc12"
< 6.60

Queued: "CC(=O)NCCCc1cccc2nc(C)oc12"
6.60 to 8.00

Queued: "CCNC(=O)NCCCc1cccc2nc(CCCCc3ccccc3)oc12"
> 8.00

Queued: CCC(=O)NCCCc1cccc2ncoc12 [Example 32, N-(3-Benzoxazol-7-ylpropyl)propanamide]
6.60 to 8.00

Queued: "CCCC(=O)NCCCc1cccc2nc(CCC)oc12"
< 6.60

Queued: CC(=O)NCCCc1cccc2ncoc12 [Example 31, N-(3-Benzoxazol-7-ylpropyl)acetamide]
6.60 to 8.00

Queued: "CCC(=O)NCCCc1cccc2nc(C(C)C)oc12"
6.60 to 8.00

Queued: "CCCC(=O)NCCCc1cccc2nc(CC)oc12"
6.60 to 8.00

Queued: "CCc1nc2cccc(CCCNC(=O)C(C)C)c2o1"
6.60 to 8.00

Queued: "CC(C)c1nc2cccc(CCCNC(=O)C3CC3)c2o1"
6.60 to 8.00

Queued: "O=C(NCCCc1cccc2nc(-c3ccccc3)oc12)C1CC1"
6.60 to 8.00

Queued: "CCC(=O)NCCCc1cccc2nc(-c3ccccc3)oc12"
6.60 to 8.00

Queued: "CC(=O)NCCCc1cccc2nc(CCCCc3ccccc3)oc12"
> 8.00

Queued: "Cc1nc2cccc(CCCNC(=O)C3CC3)c2o1"
> 8.00

Queued: "CC(C)C(=O)NCCCc1cccc2nc(-c3ccccc3)oc12"
6.60 to 8.00

Queued: "CCNC(=O)NCCCc1cccc2nc(CC)oc12"
6.60 to 8.00

Queued: "CC(=O)NCCCc1cccc2nc(C(C)C)oc12"
6.60 to 8.00

====

target: melatonin ML1b receptor (Homo sapiens)
Construct: expressed in transfected cells; membrane homogenates
experiment_notes: Melatonergic receptor binding, 2-[125I]-iodomelatonin, ML1b
conditions_used: Table II; NIH-3T3 membranes, 0.2 nM 2-[125I]-iodomelatonin, 37° C. 1 hour
test_readout: IC50

Look at this molecule and give its reported IC50. "CCc1nc2ccc(C)c(CCCNC(C)=O)c2o1"
0.01 to 0.25 µM

Queued: "C=Cc1cc(CCCNC(=O)C2CC2)c2oc(CC)nc2c1"
> 0.25 µM

Queued: "CCc1nc2ccc(-c3ccc(OC)cc3)c(CCCNC(C)=O)c2o1"
< 0.01 µM

Queued: "CCc1nc2ccc(-c3ccccc3)c(CCCNC(=O)c3ccccc3)c2o1"
0.01 to 0.25 µM

====

target: melatonin ML1a receptor (Homo sapiens)
Construct: expressed in transfected cells; membrane homogenates
experiment_notes: Melatonergic receptor binding, 2-[125I]-iodomelatonin, ML1a
conditions_used: Table II; NIH-3T3 membranes, 0.1 nM 2-[125I]-iodomelatonin, 37° C. 1 hour
test_readout: IC50

Look at this compound and give its reported IC50. "CCc1nc2cc(Br)cc(CCCNC(=O)C3CC3)c2o1"
> 250 nM

Queued: "CCc1nc2cc(-c3ccccc3)cc(CCCNC(C)=O)c2o1"
> 250 nM

Queued: "CCc1nc2cc(-c3ccc(C(F)(F)F)cc3)cc(CCCNC(=O)c3ccccc3)c2o1"
10 to 250 nM

Queued: "CCc1nc2ccc(-c3ccc(F)cc3)c(CCCNC(C)=O)c2o1"
10 to 250 nM

Queued: "CCc1nc2cc(-c3ccccc3)cc(CCCNC(=O)c3ccccc3)c2o1"
> 250 nM

Queued: "C=Cc1cc(CCCNC(=O)c2ccccc2)c2oc(CC)nc2c1"
> 250 nM

Queued: "CCc1nc2ccc(-c3ccco3)c(CCCNC(C)=O)c2o1"
< 10 nM

Queued: "CCc1nc2cc(-c3ccc(F)cc3)cc(CCCNC(C)=O)c2o1"
10 to 250 nM

Queued: "CCc1nc2cc(Br)cc(CCCNC(=O)c3ccccc3)c2o1"
> 250 nM

Queued: "CCc1nc2cc(Br)cc(CCCNC(C)=O)c2o1"
> 250 nM

Queued: "C=Cc1cc(CCCNC(=O)C2CC2)c2oc(CC)nc2c1"
> 250 nM

Queued: "CCc1nc2cc(-c3ccc(F)cc3)cc(CCCNC(=O)c3ccccc3)c2o1"
> 250 nM

Queued: "CCc1nc2cc(Br)cc(CCCNC(=O)OC(C)(C)C)c2o1"
10 to 250 nM

Queued: "CCc1nc2ccc(-c3ccc(F)cc3)c(CCCNC(=O)c3ccccc3)c2o1"
> 250 nM

Queued: "CCc1nc2ccc(-c3ccc(OC)cc3)c(CCCNC(=O)C3CC3)c2o1"
> 250 nM

Queued: "CCc1nc2ccc(-c3ccccc3)c(CCCNC(=O)c3ccccc3)c2o1"
10 to 250 nM

Queued: "CCc1nc2cc(-c3ccc(OC)cc3)cc(CCCNC(=O)c3ccccc3)c2o1"
10 to 250 nM

Queued: "CCc1nc2ccc(-c3ccccc3)c(CCCNC(C)=O)c2o1"
< 10 nM

Queued: "CCc1nc2ccc(-c3ccc(OC)cc3)c(CCCNC(C)=O)c2o1"
10 to 250 nM

Queued: "CCc1nc2cc(-c3ccc(OC)cc3)cc(CCCNC(=O)C3CC3)c2o1"
> 250 nM

Queued: "CCc1nc2ccc(-c3ccc(F)cc3)c(CCCNC(=O)C3CC3)c2o1"
10 to 250 nM

Queued: "CCc1nc2ccc(C)c(CCCNC(=O)C3CC3)c2o1"
< 10 nM

Queued: "CCc1nc2cc(-c3ccc(F)cc3)cc(CCCNC(=O)C3CC3)c2o1"
10 to 250 nM

Queued: "CCc1nc2ccc(-c3ccco3)c(CCCNC(=O)C3CC3)c2o1"
10 to 250 nM

Origin of measurements: patent US6737431B2
